Test Details: Drug concentration at the end of dosing interval in HIV-infected human PBMC at 800 mg qd for 10 days administered in fasted condition on day 10 by LC-MS/MS analysis
Format: ADME, cell-based
Test Parameters: read-out: Ctau
Property: concentration at 240 h (ng/mL)

- Cc1nnc(C(=O)NC(C)(C)c2nc(C(=O)NCc3ccc(F)cc3)c(O)c(=O)n2C)o1 [RALTEGRAVIR]: 7

----------
Test Details: Cmax in HIV-infected human plasma at 800 mg qd for 10 days administered in fasted condition on day 10 by HPLC with fluorescence detector
Assay type: ADME, organism-based
Set-up: dose 800 mg
Property: Cmax (ng/mL)

* Cc1nnc(C(=O)NC(C)(C)c2nc(C(=O)NCc3ccc(F)cc3)c(O)c(=O)n2C)o1 | 2640

----------
Test Details: AUCt in HIV-infected human PBMC at 800 mg qd for 10 days administered in fasted condition on day 10 by LC-MS/MS analysis
Assay type: ADME, cell-based
Property: AUC(0-t) at 240 h (ng·h/mL)

* Cc1nnc(C(=O)NC(C)(C)c2nc(C(=O)NCc3ccc(F)cc3)c(O)c(=O)n2C)o1 [RALTEGRAVIR] | 909

----------
Test Details: AUCt in HIV-infected human plasma at 800 mg qd for 10 days administered in fasted condition on day 10 by HPLC with fluorescence detector
Type: ADME, cell-free
Property: AUC(0-t) at 240 h (ng·h/mL)

* Cc1nnc(C(=O)NC(C)(C)c2nc(C(=O)NCc3ccc(F)cc3)c(O)c(=O)n2C)o1 [RALTEGRAVIR] | 12200

----------
Test Details: Terminal phase half life in HIV-infected human PBMC at 800 mg qd for 10 days administered in fasted condition on day 10 by LC-MS/MS analysis
Type: ADME, cell-based
Test Parameters: read-out: beta t1/2 (converted)
Property: half-life (h)

• Cc1nnc(C(=O)NC(C)(C)c2nc(C(=O)NCc3ccc(F)cc3)c(O)c(=O)n2C)o1 = 11.2
